- Tested on: Escherichia coli TOP10
- method_notes: shrunken log2 fold change of peptide-encoding DNA abundance (4.5 h post-induction vs induction); higher = less antimicrobial activity (less host growth inhibition)
- protocol_conditions: time post-induction: 4.5 h; library: site-saturation at positions 5, 18, 19, 20
As shown below, each of these sequences has a reported shrunken log2 fold change value.
API note: the answer field is a bare number with no unit suffix.

Below are worked cases with known answers.
[
  {
    "sequence_entry": "RRIRARPPRLPRPRPRPHVDPRP",
    "shrunken log2 fold change": 0.142
  },
  {
    "sequence_entry": "RRIRDRPPRLPRPRPRPCGLPRP",
    "shrunken log2 fold change": 0.371
  },
  {
    "sequence_entry": "RRIRVRPPRLPRPRPRPAYTPRP",
    "shrunken log2 fold change": -0.286
  }
]

Which shrunken log2 fold change value belongs to RRIRYRPPRLPRPRPRPRQHPRP ?
-0.571

Which shrunken log2 fold change value belongs to RRIRWRPPRLPRPRPRPEYLPRP ?
-0.0854

Which shrunken log2 fold change value belongs to RRIRPRPPRLPRPRPRPSHWPRP ?
0.959

Which shrunken log2 fold change value belongs to RRIRHRPPRLPRPRPRPFHKPRP ?
-0.0218

Which shrunken log2 fold change value belongs to RRIRLRPPRLPRPRPRPVEMPRP ?
-0.0829

Which shrunken log2 fold change value belongs to RRIRTRPPRLPRPRPRPKFLPRP ?
0.0687

Which shrunken log2 fold change value belongs to RRIRWRPPRLPRPRPRPFRMPRP ?
-0.122

Which shrunken log2 fold change value belongs to RRIRHRPPRLPRPRPRPKFCPRP ?
-0.132

----------
As shown below, each of these sequences has a reported shrunken log2 fold change value.
- Tested on: Escherichia coli TOP10
- method_notes: shrunken log2 fold change of peptide-encoding DNA abundance (4.5 h post-induction vs induction); higher = less antimicrobial activity (less host growth inhibition)
- protocol_conditions: time post-induction: 4.5 h; library: site-saturation at positions 5, 18, 19, 20
API note: the answer field is a bare number with no unit suffix.

[
  {
    "sequence_entry": "RRIRDRPPRLPRPRPRPEDNPRP",
    "target_system": "Escherichia coli TOP10",
    "assay_metric": "shrunken log2 fold change",
    "obs_value": 1.31
  },
  {
    "sequence_entry": "RRIRWRPPRLPRPRPRPICMPRP",
    "target_system": "Escherichia coli TOP10",
    "assay_metric": "shrunken log2 fold change",
    "obs_value": -0.242
  },
  {
    "sequence_entry": "RRIRERPPRLPRPRPRPPTAPRP",
    "target_system": "Escherichia coli TOP10",
    "assay_metric": "shrunken log2 fold change",
    "obs_value": 0.0872
  }
]

Which shrunken log2 fold change value belongs to RRIRDRPPRLPRPRPRPDFIPRP ?
0.0951

Which shrunken log2 fold change value belongs to RRIRNRPPRLPRPRPRPKEHPRP ?
-0.0991

----------
- System: Escherichia coli TOP10
- method_notes: shrunken log2 fold change of peptide-encoding DNA abundance (4.5 h post-induction vs induction); higher = less antimicrobial activity (less host growth inhibition)
- protocol_conditions: time post-induction: 4.5 h; library: site-saturation at positions 5, 18, 19, 20
assay_metric: shrunken log2 fold change
API note: the answer field is a bare number with no unit suffix.

Below are worked cases with known answers.
[
  {
    "sequence_entry": "RRIRVRPPRLPRPRPRPQPYPRP",
    "assay_metric": "shrunken log2 fold change",
    "obs_value": -0.486
  },
  {
    "sequence_entry": "RRIRARPPRLPRPRPRPAENPRP",
    "assay_metric": "shrunken log2 fold change",
    "obs_value": 0.865
  },
  {
    "sequence_entry": "RRIRQRPPRLPRPRPRPPVAPRP",
    "assay_metric": "shrunken log2 fold change",
    "obs_value": 0.121
  }
]

Which shrunken log2 fold change value belongs to RRIRPRPPRLPRPRPRPYDIPRP ?
-0.88

----------
- Tested on: Escherichia coli TOP10
- method_notes: shrunken log2 fold change of peptide-encoding DNA abundance (4.5 h post-induction vs induction); higher = less antimicrobial activity (less host growth inhibition)
- protocol_conditions: time post-induction: 4.5 h; library: site-saturation at positions 5, 18, 19, 20
shrunken log2 fold change of -0.1 or higher: Condition met. Under -0.1: Condition not met.

[
  {
    "sequence_entry": "RRIRHRPPRLPRPRPRPSGCPRP",
    "class_assignment": "Condition not met"
  },
  {
    "sequence_entry": "RRIRMRPPRLPRPRPRPSQWPRP",
    "class_assignment": "Condition met"
  }
]

Is it the case that RRIRERPPRLPRPRPRPYPWPRP has shrunken log2 fold change reaching or exceeding -0.1?
Condition not met

Is it the case that RRIRPRPPRLPRPRPRPFQWPRP has shrunken log2 fold change reaching or exceeding -0.1?
Condition met

Is it the case that RRIRRRPPRLPRPRPRPAQFPRP has shrunken log2 fold change reaching or exceeding -0.1?
Condition met

Is it the case that RRIRNRPPRLPRPRPRPLFVPRP has shrunken log2 fold change reaching or exceeding -0.1?
Condition not met

Is it the case that RRIRVRPPRLPRPRPRPRYPPRP has shrunken log2 fold change reaching or exceeding -0.1?
Condition not met

Is it the case that RRIRFRPPRLPRPRPRPGYYPRP has shrunken log2 fold change reaching or exceeding -0.1?
Condition not met

Is it the case that RRIRIRPPRLPRPRPRPIVCPRP has shrunken log2 fold change reaching or exceeding -0.1?
Condition met

Is it the case that RRIRVRPPRLPRPRPRPHPRPRP has shrunken log2 fold change reaching or exceeding -0.1?
Condition met

Is it the case that RRIRWRPPRLPRPRPRPVTKPRP has shrunken log2 fold change reaching or exceeding -0.1?
Condition met

Is it the case that RRIRFRPPRLPRPRPRPHYSPRP has shrunken log2 fold change reaching or exceeding -0.1?
Condition not met

Is it the case that RRIRERPPRLPRPRPRPCMPPRP has shrunken log2 fold change reaching or exceeding -0.1?
Condition met

Is it the case that RRIRHRPPRLPRPRPRPVAKPRP has shrunken log2 fold change reaching or exceeding -0.1?
Condition not met

Is it the case that RRIRCRPPRLPRPRPRPLCWPRP has shrunken log2 fold change reaching or exceeding -0.1?
Condition met

Is it the case that RRIRPRPPRLPRPRPRPMDQPRP has shrunken log2 fold change reaching or exceeding -0.1?
Condition not met

Is it the case that RRIRTRPPRLPRPRPRPDPQPRP has shrunken log2 fold change reaching or exceeding -0.1?
Condition met

Is it the case that RRIRHRPPRLPRPRPRPQYSPRP has shrunken log2 fold change reaching or exceeding -0.1?
Condition not met

Is it the case that RRIRFRPPRLPRPRPRPIRLPRP has shrunken log2 fold change reaching or exceeding -0.1?
Condition met

Is it the case that RRIRFRPPRLPRPRPRPNKMPRP has shrunken log2 fold change reaching or exceeding -0.1?
Condition not met

----------
- Test system: Escherichia coli TOP10
- method_notes: shrunken log2 fold change of peptide-encoding DNA abundance (4.5 h post-induction vs induction); higher = less antimicrobial activity (less host growth inhibition)
- protocol_conditions: time post-induction: 4.5 h; library: site-saturation at positions 5, 18, 19, 20
shrunken log2 fold change of -0.1 or higher: 1. Under -0.1: -1.

Use the examples below as a reference point.
[
  {
    "sequence_entry": "RRIRWRPPRLPRPRPRPWWVPRP",
    "class_assignment": 1
  },
  {
    "sequence_entry": "RRIRERPPRLPRPRPRPFIVPRP",
    "class_assignment": -1
  },
  {
    "sequence_entry": "RRIRERPPRLPRPRPRPTPDPRP",
    "class_assignment": 1
  }
]

Is it the case that RRIRYRPPRLPRPRPRPPLQPRP has shrunken log2 fold change reaching or exceeding -0.1?
1

Is it the case that RRIRGRPPRLPRPRPRPKAIPRP has shrunken log2 fold change reaching or exceeding -0.1?
1

Is it the case that RRIRVRPPRLPRPRPRPNTPPRP has shrunken log2 fold change reaching or exceeding -0.1?
1

Is it the case that RRIRHRPPRLPRPRPRPVMIPRP has shrunken log2 fold change reaching or exceeding -0.1?
1

Is it the case that RRIRGRPPRLPRPRPRPFDRPRP has shrunken log2 fold change reaching or exceeding -0.1?
1

----------
- System: Escherichia coli TOP10;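 note: peptides expressed intracellularly from a pBAD plasmid library in pooled LB shake-flask culture, induced with 0.3% L-arabinose, DNA abundance read by NGS, three biological replicates, DESeq2 with apeglm shrinkage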
- method_notes: shrunken log2 fold change of peptide-encoding DNA abundance (4.5 h post-induction vs induction); higher = less antimicrobial activity (less host growth inhibition)
- protocol_conditions: time post-induction: 4.5 h; library: site-saturation at positions 5, 18, 19, 20
assay_metric: shrunken log2 fold change
API note: the answer field is a bare number with no unit suffix.

[
  {
    "sequence_entry": "RRIRSRPPRLPRPRPRPWNSPRP",
    "shrunken log2 fold change": -0.19
  },
  {
    "sequence_entry": "RRIRWRPPRLPRPRPRPFQIPRP",
    "shrunken log2 fold change": -0.25
  },
  {
    "sequence_entry": "RRIRERPPRLPRPRPRPLSIPRP",
    "shrunken log2 fold change": -0.367
  },
  {
    "sequence_entry": "RRIRWRPPRLPRPRPRPWDMPRP",
    "shrunken log2 fold change": -0.00946
  },
  {
    "sequence_entry": "RRIRVRPPRLPRPRPRPFGTPRP",
    "shrunken log2 fold change": -0.0129
  },
  {
    "sequence_entry": "RRIRLRPPRLPRPRPRPKHVPRP",
    "shrunken log2 fold change": -0.0799
  },
  {
    "sequence_entry": "RRIRNRPPRLPRPRPRPKDDPRP",
    "shrunken log2 fold change": 0.0456
  },
  {
    "sequence_entry": "RRIRARPPRLPRPRPRPLFHPRP",
    "shrunken log2 fold change": -0.249
  },
  {
    "sequence_entry": "RRIRMRPPRLPRPRPRPREDPRP",
    "shrunken log2 fold change": 0.0544
  },
  {
    "sequence_entry": "RRIRWRPPRLPRPRPRPAINPRP",
    "shrunken log2 fold change": 0.185
  }
]

Which shrunken log2 fold change value belongs to RRIRVRPPRLPRPRPRPIHRPRP ?
-0.3

Which shrunken log2 fold change value belongs to RRIRWRPPRLPRPRPRPHTDPRP ?
-0.283

Which shrunken log2 fold change value belongs to RRIRERPPRLPRPRPRPDTFPRP ?
-0.00141

Which shrunken log2 fold change value belongs to RRIRVRPPRLPRPRPRPAGMPRP ?
-0.0507

Which shrunken log2 fold change value belongs to RRIRDRPPRLPRPRPRPAMYPRP ?
-0.0257
